Record form. Attribute: Dmax. Fill in for each entry.
Molecular target: Androgen Receptor dual T878A/L702H mutant protein (Homo sapiens, UniProt P10275, L702H/T878A)
Construct: Androgen Receptor dual T878A/L702H mutant protein in human MDA PCa 2b (ATCC, #CRL-2422) cells; host or cells: MDA PCa 2b
Sequence (P10275 whole entry L702H/T878A): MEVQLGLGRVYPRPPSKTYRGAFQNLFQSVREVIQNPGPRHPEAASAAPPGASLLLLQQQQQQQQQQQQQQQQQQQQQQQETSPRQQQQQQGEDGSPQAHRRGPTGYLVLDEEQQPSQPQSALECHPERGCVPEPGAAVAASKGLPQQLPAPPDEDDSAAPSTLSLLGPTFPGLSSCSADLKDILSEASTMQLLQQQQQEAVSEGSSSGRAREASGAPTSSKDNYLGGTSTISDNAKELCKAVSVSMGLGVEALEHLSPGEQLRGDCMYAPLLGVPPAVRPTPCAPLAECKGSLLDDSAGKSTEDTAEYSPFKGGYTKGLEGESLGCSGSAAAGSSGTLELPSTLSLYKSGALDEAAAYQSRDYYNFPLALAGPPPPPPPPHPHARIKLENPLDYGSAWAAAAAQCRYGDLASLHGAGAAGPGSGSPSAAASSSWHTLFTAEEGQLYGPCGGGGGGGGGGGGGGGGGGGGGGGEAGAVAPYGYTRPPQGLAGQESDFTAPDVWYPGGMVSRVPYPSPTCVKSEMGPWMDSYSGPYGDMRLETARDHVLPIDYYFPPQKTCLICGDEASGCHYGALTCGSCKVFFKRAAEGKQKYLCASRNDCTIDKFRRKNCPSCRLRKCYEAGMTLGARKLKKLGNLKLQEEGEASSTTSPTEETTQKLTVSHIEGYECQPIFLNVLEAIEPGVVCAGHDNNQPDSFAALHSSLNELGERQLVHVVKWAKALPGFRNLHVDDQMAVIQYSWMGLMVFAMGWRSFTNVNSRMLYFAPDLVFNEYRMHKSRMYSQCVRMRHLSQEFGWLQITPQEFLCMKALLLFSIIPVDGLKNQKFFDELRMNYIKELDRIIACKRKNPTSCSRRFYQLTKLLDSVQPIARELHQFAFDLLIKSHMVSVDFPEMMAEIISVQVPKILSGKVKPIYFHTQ
Assay: Dual Mutant (T878A/L702H) Androgen Receptor Degradation Assay (HTRF)
Type: cell-based
Settings: MDA-PCa-2b, 18 h, human MDA PCa 2b cells, read-out: mean asymptote max
Where a name gives a salt, the structure may show the parent alone.

Which Dmax value belongs to CC1(C)[C@H](NC(=O)c2cnc(N3CCC(C(=O)N4CCC(n5ccc6c(N7CCC(=O)NC7=O)cccc65)CC4)CC3)nc2)C(C)(C)[C@H]1Oc1ccc(C#N)c(Cl)c1 ?
≥ 55%

Which Dmax value belongs to CC1(C)[C@H](NC(=O)c2ccc(N3CCC(CN4CCC(n5ncc6c(N7CCC(=O)NC7=O)cccc65)CC4)CC3)nc2)C(C)(C)[C@H]1Oc1ccc(C#N)c(Cl)c1 [AR41, hydrochloride] ?
≥ 55%

Which Dmax value belongs to CC1(C)[C@H](NC(=O)c2ccc(N3CCC(CN4CCC(n5ncc6c(N7CCC(=O)NC7=O)cccc65)CC4)CC3)nc2)C(C)(C)[C@H]1Oc1ccc(C#N)c2ncccc12 [AR261, hydrochloride] ?
≥ 55%

###

Biological target: Androgen Receptor (Homo sapiens, UniProt P10275, T878A)
Construct: the AR gene was modified, using CRISPR/Cas9 editing, so the expressed AR protein included an 11 amino acid HiBiT tag; endogenous in cells; host or cells: clonal LnCaP-derived line, AR gene edited by CRISPR/Cas9
Sequence (P10275 whole entry T878A): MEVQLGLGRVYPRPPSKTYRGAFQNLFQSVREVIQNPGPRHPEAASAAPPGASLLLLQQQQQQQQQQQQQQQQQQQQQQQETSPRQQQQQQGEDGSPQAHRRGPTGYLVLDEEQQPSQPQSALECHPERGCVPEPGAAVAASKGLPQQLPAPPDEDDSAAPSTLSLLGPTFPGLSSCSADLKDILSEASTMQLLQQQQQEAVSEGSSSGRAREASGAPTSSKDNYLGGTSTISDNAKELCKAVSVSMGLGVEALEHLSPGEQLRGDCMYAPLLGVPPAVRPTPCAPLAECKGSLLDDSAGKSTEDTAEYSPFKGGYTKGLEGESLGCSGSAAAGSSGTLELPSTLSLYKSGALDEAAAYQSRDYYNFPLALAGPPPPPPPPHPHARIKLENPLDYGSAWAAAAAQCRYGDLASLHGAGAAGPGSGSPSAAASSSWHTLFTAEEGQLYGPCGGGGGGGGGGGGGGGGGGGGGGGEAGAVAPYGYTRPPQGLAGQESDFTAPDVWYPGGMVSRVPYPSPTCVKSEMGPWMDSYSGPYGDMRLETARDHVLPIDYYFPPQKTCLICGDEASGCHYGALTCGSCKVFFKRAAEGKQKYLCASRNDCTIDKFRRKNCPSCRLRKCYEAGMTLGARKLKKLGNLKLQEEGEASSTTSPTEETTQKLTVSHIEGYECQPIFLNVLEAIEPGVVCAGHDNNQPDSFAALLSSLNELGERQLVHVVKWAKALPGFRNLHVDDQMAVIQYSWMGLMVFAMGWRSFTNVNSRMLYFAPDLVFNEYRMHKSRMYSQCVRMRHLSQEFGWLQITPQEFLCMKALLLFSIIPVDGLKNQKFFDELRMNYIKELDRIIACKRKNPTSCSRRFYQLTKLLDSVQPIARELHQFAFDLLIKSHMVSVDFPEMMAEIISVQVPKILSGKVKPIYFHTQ
Sequence (Q96SW2 whole entry partner): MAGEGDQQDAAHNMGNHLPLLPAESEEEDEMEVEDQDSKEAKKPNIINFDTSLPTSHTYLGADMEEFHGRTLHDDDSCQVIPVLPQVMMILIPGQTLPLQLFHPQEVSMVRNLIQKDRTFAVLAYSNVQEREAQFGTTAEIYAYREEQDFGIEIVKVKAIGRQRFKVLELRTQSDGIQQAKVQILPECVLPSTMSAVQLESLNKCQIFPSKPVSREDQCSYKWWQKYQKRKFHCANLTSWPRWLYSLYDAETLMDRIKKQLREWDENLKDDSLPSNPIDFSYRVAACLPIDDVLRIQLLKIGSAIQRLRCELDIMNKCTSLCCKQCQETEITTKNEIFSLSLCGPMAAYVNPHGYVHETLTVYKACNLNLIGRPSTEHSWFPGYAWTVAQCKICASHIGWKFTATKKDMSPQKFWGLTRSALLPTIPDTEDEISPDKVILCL
Sequence (Q16531 whole entry partner): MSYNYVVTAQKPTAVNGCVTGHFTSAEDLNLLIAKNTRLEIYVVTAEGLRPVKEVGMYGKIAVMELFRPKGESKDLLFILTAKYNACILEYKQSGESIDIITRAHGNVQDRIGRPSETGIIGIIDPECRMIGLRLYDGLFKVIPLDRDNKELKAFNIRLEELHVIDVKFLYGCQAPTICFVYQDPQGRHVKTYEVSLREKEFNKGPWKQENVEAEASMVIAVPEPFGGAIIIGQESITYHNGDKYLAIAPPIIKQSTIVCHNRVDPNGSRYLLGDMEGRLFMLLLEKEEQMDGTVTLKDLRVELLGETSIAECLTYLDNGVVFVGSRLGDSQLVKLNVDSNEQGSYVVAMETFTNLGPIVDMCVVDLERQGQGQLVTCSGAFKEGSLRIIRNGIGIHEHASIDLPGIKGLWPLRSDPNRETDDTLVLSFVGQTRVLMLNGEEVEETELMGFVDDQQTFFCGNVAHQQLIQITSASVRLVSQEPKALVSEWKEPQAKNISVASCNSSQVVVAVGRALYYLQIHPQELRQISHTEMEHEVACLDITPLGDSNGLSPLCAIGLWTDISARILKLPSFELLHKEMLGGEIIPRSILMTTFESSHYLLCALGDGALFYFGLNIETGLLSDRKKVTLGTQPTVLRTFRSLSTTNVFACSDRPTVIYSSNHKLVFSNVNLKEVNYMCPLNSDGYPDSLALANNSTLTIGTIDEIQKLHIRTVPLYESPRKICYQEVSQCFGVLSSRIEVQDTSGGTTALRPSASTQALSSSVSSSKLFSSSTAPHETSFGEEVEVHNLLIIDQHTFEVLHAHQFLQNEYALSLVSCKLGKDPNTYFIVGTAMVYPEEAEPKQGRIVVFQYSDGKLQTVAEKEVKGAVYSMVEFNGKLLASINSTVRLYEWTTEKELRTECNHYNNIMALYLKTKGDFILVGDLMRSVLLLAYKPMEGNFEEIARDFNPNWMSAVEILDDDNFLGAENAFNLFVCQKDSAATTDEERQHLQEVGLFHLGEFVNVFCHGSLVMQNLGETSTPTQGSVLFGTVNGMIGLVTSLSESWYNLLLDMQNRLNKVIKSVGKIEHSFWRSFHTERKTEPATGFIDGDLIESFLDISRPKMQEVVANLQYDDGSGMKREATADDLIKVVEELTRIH
Assay: Androgen Receptor Degradation Assay (Nano-Glo HiBiT)
Format: cell-based
Settings: LNCaP, 18 h, HiBiT-tagged AR in human LnCaP cells, read-out: mean asymptote max
Structures can show the parent of a compound that is named as a salt.
endpoint_name: Dmax

Provide the documented Dmax with Androgen Receptor (Homo sapiens, UniProt P10275, T878A) as the system for N#Cc1ccc(O[C@H]2CC[C@H](NC(=O)c3ccc(N4CCC(CN5CCC(n6ncc7c(N8CCC(=O)NC8=O)nccc76)CC5)CC4)cc3)CC2)cc1Cl [EAR199]
≥ 50%

Provide the documented Dmax with Androgen Receptor (Homo sapiens, UniProt P10275, T878A) as the system for CC(C)n1ccc2c(N3CCC(=O)NC3=O)cc(C(=O)N(C)CC3CCN(CCCCOc4ccc(C(=O)N[C@H]5CC[C@H](Oc6ccc(C#N)c(Cl)c6)CC5)nc4)CC3)cc21 [EAR65]
≥ 50%

Provide the documented Dmax with Androgen Receptor (Homo sapiens, UniProt P10275, T878A) as the system for N#Cc1ccc(O[C@H]2CC[C@H](NC(=O)c3ccc(N4CCC(CN5CCC(n6ccc7c(N8CCC(=O)NC8=O)cncc76)CC5)CC4)nc3)CC2)cc1C(F)(F)F [AR19]
≥ 50%

Provide the documented Dmax with Androgen Receptor (Homo sapiens, UniProt P10275, T878A) as the system for N#Cc1ccc(O[C@H]2CC[C@H](NC(=O)c3ccc(N4CCN(CC5CCC(n6ccc7c(N8CCC(=O)NC8=O)cccc76)CC5)CC4)nn3)CC2)cc1Cl (some centres unmarked) [EAR194, trifluoroacetic acid salt]
≥ 50%

Provide the documented Dmax with Androgen Receptor (Homo sapiens, UniProt P10275, T878A) as the system for CC(C1CCN(c2ccc(C(=O)N[C@H]3CC[C@H](Oc4ccc(C#N)c(Cl)c4)CC3)nn2)CC1)N1CCC(n2ccc3c(N4CCC(=O)NC4=O)cncc32)CC1 (some centres unmarked) [EAR135]
≥ 50%

Ref: patent US20250205344A1
